target: human LTBR on cells (human, UniProt P36941 31-435); test: cell-based or functional assay
result-type: NFκB luc, 15000 ng/ml, with x linker
The reply must contain the numeric value and, after it, the unit.

Previously resolved entries follow.
P1AE9450 (antibody, human IgG1, kappa, L234A L235A, V domains shown, human IgG1 PG LALA; from transgenic rabbit immunization; also called LTBR (9450)) VH: EVQLLESGGGLVQPGGSLRLSCAASGFTVSSYVMKWFRQAPGKGLEWVSSISGSGGRPFYADSVKGRFTISRDNSKNALYLQMNSLRAEDTAVYYCANDMDVWGQGTTVTVSS VL: DIQMTQSPSSLSASVGDRVTITCRASQDISSFLKWYQQKPGKAPTLLIYAASALQSGVPSRFSGSGSGTDFTLTISSLQPEDFATYYCQQYNTYPLTFGGGTKVDIKR :: 23800 RLU
P1AF0080 (antibody, human IgG1, kappa, L234A L235A, V domains shown, human IgG1 PG LALA; from transgenic rabbit immunization; also called LTBR (0080)) VH: EVQLLESGGGLVQPGGSLRLSCAASGFTFSYYAMTWVRQAPGKGLEWIGVINSGGGTYYTDSVKGRFTMSRDNSKNTLYLQVNSLRAEDTAVYYCAKASTADVWGQGTTVTVSS VL: DIQMTQSPSSLSASVGDRVTITCQASQGISNYLSWYQQKPGKAPKRLIFAASSLESGVPSRFSGSGSGTDFTLTISSLQPEDFATYYCQQYNSYSLTFGGGTKLEIKR :: 45000 RLU

Kindly consider the entry below.
Sample P1AE9452 (antibody, human IgG1, kappa, L234A L235A, V domains shown, human IgG1 PG LALA; from transgenic rabbit immunization; also called LTBR (9452)) VH: EVQLLESGGGLVQPGGSLRLSCAAAGFTFSSYPMTWVRQAPGKGLEWVSLISPSGATTYYADSVKGRFTISRDTSKNTLYLQMNSLRAEDTAVYYCAKNHYPDDVIIKNYYFYGVDVWGQGTTVTVSS VL: DIQMTQSPSSLSASVGDRVTITCRASQDISNYLNWYQQKPGKAPKSLIYAASSLQSGVPSRFSGSGSGTDFTLTISSLQPEDFANYYCQQTHTIPYSFGQGTNLEIKR ; NFκB luc, 15000 ng/ml, with x linker observed: 25400 RLU
